All values here come from patent US12565517B2.

- target.entity: CTLA-4 (Homo sapiens)
- procedure.text: Affinity measurement of CTLA-4 binding clones after Affinity Maturation (EC50 by ELISA, Table 6)
- measurement.conditions: N-terminal MBP fusion protein of the CTLA-4 binding clone; EC50 calculated from ELISA binding curve
- Procedure: For each of the CTLA-4 binding clones obtained by Affinity Maturation, purified N-terminal MBP fusion protein solution (400 μg/mL) was prepared and samples serially 2-fold diluted with PBS were prepared. […] Further, the plates were washed 5 times with 100 μL/well of TBST, and binding of N-terminal MBP fusion proteins to the antigen was detected by 20 μL/well of chromogenic substrate (0.4 mg/mL 3,3′,5,5′-Tetramethyl-benzidine, 0.01% hydrogen peroxide). […]
Where no end group is shown, it is not given here.
assay.endpoint: pEC50
Numbers only, as −log10 of the molar value.

construct.sequence | pEC50
CMHPFLPIVSHHFCER [#19] | 7.12

Now for a further sequence.
Entry CLHPFLPIVSHHFCGR (cysteine pairing not given here; also: MBP fusion) [#10] has what pEC50?
7.09

---

- target.entity: CTLA-4 (Homo sapiens)
- Sequence (P16410 36-223): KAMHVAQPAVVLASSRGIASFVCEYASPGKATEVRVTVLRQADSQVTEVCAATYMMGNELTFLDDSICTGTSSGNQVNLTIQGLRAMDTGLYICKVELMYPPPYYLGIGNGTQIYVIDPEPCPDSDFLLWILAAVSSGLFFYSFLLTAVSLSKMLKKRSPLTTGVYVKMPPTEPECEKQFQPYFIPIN
- procedure.text: ELISA binding of clones after Affinity Maturation with random library (Tables 10, 11)
- measurement.conditions: CTLA-4 binding ELISA of clones after Affinity Maturation from random (NNS) library; signal/noise ratio; clones of 4th or 5th round
I'd appreciate it if you could supply ELISA S/N(SA) values for the items below.
Give bare numbers.

// known answers, use as guide
substance | ELISA S/N(SA)
C4m#19-5th2w-NNS6-80 (GGCLHPFLPIVSWHFCPC; C4m#19-5th2w-NNS6-80) | 3.6
C4m#19-5th4w-NN6-58 (GGCRHPFLPISSIHFCCI; C4m#19-5th4w-NN6-58) | 18.7
C4m#19-5th2w-NNS6-90 (GGCRHPFLPIVSFHFCPF; C4m#19-5th2w-NNS6-90) | 19.7
C4m#19-5th4w-NN6-55-4 (GGCVHPSLPILSVHFCPR; C4m#19-5th4w-NN6-55-4) | 29.5
C4m#19-5th2w-NNS6-28 (GGCAHPYLPIRSVHFCPC; C4m#19-5th2w-NNS6-28) | 6.3

Look up ELISA S/N(SA) for the entries below, preserving their order.
1. C4m3127-4th-NNS6-85 (GGCGHPFLPIFSSHFCPL; C4m3127-4th-NNS6-85) [Clone C4m3127-4th-NNS6-85]
2. C4m#19-5th4w-NN6-37 (GGCLHPFLPISSWHFCGR; C4m#19-5th4w-NN6-37)
3. C4m3127-4th-NNS6-79 (GGCLHPFLPIRSVHFCLR; C4m3127-4th-NNS6-79) [Clone C4m3127-4th-NNS6-79]

[9.1, 22.7, 12.8]

---

- target.entity: CTLA-4 (Homo sapiens, UniProt P16410)
- Sequence (P16410 36-223): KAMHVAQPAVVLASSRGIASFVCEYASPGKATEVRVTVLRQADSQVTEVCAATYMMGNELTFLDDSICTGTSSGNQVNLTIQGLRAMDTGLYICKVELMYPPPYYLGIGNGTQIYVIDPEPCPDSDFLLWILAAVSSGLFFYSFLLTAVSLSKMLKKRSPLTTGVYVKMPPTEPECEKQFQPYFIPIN
- procedure.text: ELISA binding of clones after Affinity Maturation with random library (Tables 10, 11)
- measurement.conditions: CTLA-4 binding ELISA of clones after Affinity Maturation from random (NNS) library; signal/noise ratio; clones of 4th or 5th round
- Method: After each round of Affinity Maturation, the cyclic peptide genes were recovered and subcloned into pET-Mal vector (FIG. 2) in the same manner as described above to perform base sequence analysis. For the 94 single colonies analyzed for sequence, E. coli transformants were inoculated into 100 μL of 2×YT medium containing ampicillin (final concentration 50 μg/mL), incubated at 37° C. for 3-5 hours (OD600=0.5-0.8), then added with IPTG (final concentration 0.5 mM) and incubated at 25° C. overnight. […]
assay.endpoint: ELISA S/N(SA)
Numbers only.

// known answers, use as guide
substance | ELISA S/N(SA)
C4m3127-4th-NNS6-2 (GGCWHPSLPIYSPHFCPL; C4m3127-4th-NNS6-2) [Clone C4m3127-4th-NNS6-2] | 12.8
C4m#19-5th4w-NN6-64 (GGCWHPVLPIRSVHFCCR; C4m#19-5th4w-NN6-64) | 13.7
C4m#19-5th2w-NNS6-3 (GGCAHPFLPIFSPHFCPF; C4m#19-5th2w-NNS6-3) | 18.4
C4m#19-5th4w-NN6-54 (GGCLHPGLPIRSLHFCPR; C4m#19-5th4w-NN6-54) | 33.3

Look up ELISA S/N(SA) for the entries below, preserving their order.
1. C4m#19-5th4w-NN6-25 (GGCLHPVLPIRSRHFCPV; C4m#19-5th4w-NN6-25)
2. C4m#19-5th4w-NN6-86 (GGCAHPVLPIRSLHFCPH; C4m#19-5th4w-NN6-86)
3. C4m#19-5th4w-NN6-72 (GGCWHPWLPIVSVHFCGC; C4m#19-5th4w-NN6-72)
4. C4m#19-5th4w-NN6-44 (GGCRHPFLPIVSWHFCGR; C4m#19-5th4w-NN6-44)
5. C4m#19-5th4w-NN6-39 (GGCWHPFLPIRSLHFCPR; C4m#19-5th4w-NN6-39)

1: 38.9; 2: 19.7; 3: 4.6; 4: 30.1; 5: 35.6
